Here we list compounds with their recorded MIC when tested on Escherichia coli K88.

Fill in the blank: the reported MIC of CC(C)C[C@H](NC(=O)[C@@H]1CCCN1C(=O)[C@H](CCCCN)NC(=O)[C@H](CC(C)C)NC(=O)[C@H](CC(C)C)NC(=O)[C@@H]1CCCN1C(=O)[C@H](CCCCN)NC(=O)[C@H](CC(C)C)NC(=O)[C@H](CC(C)C)NC(=O)[C@@H]1CCCN1C(=O)[C@H](CCCCN)NC(=O)[C@H](CC(C)C)NC(=O)[C@H](CC(C)C)NC(=O)[C@@H]1CCCN1C(=O)[C@H](CCCCN)NC(=O)[C@H](CC(C)C)NC(=O)[C@H](CC(C)C)NC(=O)[C@@H]1CCCN1C(=O)[C@H](CCCCN)NC(=O)[C@@H](N)CC(C)C)C(N)=O is ____.
2 µM

Fill in the blank: the reported MIC of CC(C)C[C@H](NC(=O)CNC(=O)CNC(=O)CNC(=O)[C@@H](N)CCCNC(=N)N)C(=O)N[C@H]1CSSC[C@@H](C(=O)N[C@H](C(=O)NCC(=O)N[C@@H](CCCNC(=N)N)C(N)=O)C(C)C)NC(=O)[C@H](C(C)C)NC(=O)[C@@H]2CSSC[C@H](NC(=O)[C@H](Cc3ccc(O)cc3)NC1=O)C(=O)N[C@@H](CCCNC(=N)N)C(=O)N[C@@H](CCCNC(=N)N)C(=O)N[C@@H](CCCNC(=N)N)C(=O)N[C@@H](Cc1ccccc1)C(=O)N2 is ____.
4.03 µM

Fill in the blank: the reported MIC of CC[C@H](C)[C@H](NC(=O)CNC(=O)[C@@H](NC(=O)[C@H](Cc1c[nH]c2ccccc12)NC(=O)[C@@H](NC(=O)CNC(=O)[C@@H](NC(=O)[C@H](CCCCN)NC(=O)[C@@H](N)CCCCN)[C@@H](C)CC)[C@@H](C)CC)[C@@H](C)CC)C(=O)N[C@@H](CCCCN)C(=O)N[C@@H](CCCCN)C(N)=O is ____.
2 µM

Fill in the blank: the reported MIC of C[C@H](NC(=O)[C@H](C)NC(=O)[C@H](Cc1c[nH]c2ccccc12)NC(=O)[C@H](Cc1c[nH]c2ccccc12)NC(=O)[C@H](Cc1c[nH]c2ccccc12)NC(=O)[C@@H](N)CCCN=C(N)N)C(N)=O is ____.
≥ 64 µM

Fill in the blank: the reported MIC of C[C@@H]1NC(=O)[C@@H](N)CSSC[C@@H](C(=O)N[C@@H](CCCN=C(N)N)C(=O)N[C@@H](Cc2c[nH]c3ccccc23)C(=O)N[C@@H](Cc2c[nH]c3ccccc23)C(=O)N[C@@H](Cc2c[nH]c3ccccc23)C(=O)N[C@@H](CCCN=C(N)N)C(=O)N[C@@H](CCCN=C(N)N)C(N)=O)NC(=O)[C@H](Cc2ccccc2)NC(=O)[C@H](Cc2ccc(O)cc2)NC(=O)[C@H](CO)NC1=O is ____.
≥ 32 µM

Fill in the blank: the reported MIC of CC(C)C[C@H](NC(=O)[C@H](CCCCN)NC(=O)[C@H](C)NC(=O)[C@H](C)NC(=O)[C@H](C)NC(=O)[C@H](CCCCN)NC(=O)[C@H](C)NC(=O)[C@H](C)NC(=O)[C@H](C)NC(=O)[C@H](CCCCN)NC(=O)[C@H](CC(C)C)NC(=O)[C@@H](N)Cc1c[nH]c2ccccc12)C(=O)N[C@@H](Cc1c[nH]c2ccccc12)C(N)=O is ____.
2 µM

Fill in the blank: the reported MIC of CC(C)C[C@H](NC(=O)[C@H](Cc1c[nH]c2ccccc12)NC(=O)[C@H](CCCCN)NC(=O)[C@H](C)NC(=O)[C@H](C)NC(=O)[C@H](C)NC(=O)[C@H](CCCCN)NC(=O)[C@H](C)NC(=O)[C@H](C)NC(=O)[C@H](C)NC(=O)[C@H](CCCCN)NC(=O)[C@H](Cc1c[nH]c2ccccc12)NC(=O)[C@@H](N)CC(C)C)C(N)=O is ____.
4 µM

Fill in the blank: the reported MIC of CC[C@H](C)[C@H](NC(=O)[C@H](Cc1c[nH]c2ccccc12)NC(=O)[C@H](CCCN=C(N)N)NC(=O)[C@H](CC(C)C)NC(=O)[C@@H](NC(=O)[C@H](CCCN=C(N)N)NC(=O)[C@H](CCCN=C(N)N)NC(=O)[C@H](C)NC(=O)[C@H](C)N)[C@@H](C)CC)C(=O)N[C@@H](Cc1ccccc1)C(=O)N[C@@H](CCCN=C(N)N)C(N)=O is ____.
4 µM

----------
Hi there, I'd appreciate the recorded MIC for every entry that follows.
Write the value in µM as a bare number.

What is its MIC for Klebsiella pneumoniae ATCC 13883? Entry: CC[C@H](C)[C@H](NC(=O)[C@H](CC(C)C)NC(=O)[C@H](CCCN=C(N)N)NC(=O)[C@@H](N)CCCN=C(N)N)C(=O)N[C@@H](CCCN=C(N)N)C(=O)N[C@@H](CC(C)C)C(=O)N[C@@H](Cc1c[nH]c2ccccc12)C(=O)N[C@@H](CC(C)C)C(=O)N[C@@H](CCCN=C(N)N)C(=O)N[C@@H](CC(C)C)C(=O)N[C@@H](CC(C)C)C(=O)N[C@@H](CCCN=C(N)N)C(N)=O
4

What is its MIC for Klebsiella pneumoniae ATCC 13883? Entry: CC(C)C[C@H](NC(=O)[C@H](CC(C)C)NC(=O)[C@H](CCCCN)NC(=O)CNC(=O)[C@H](CC(C)C)NC(=O)[C@H](CC(C)C)NC(=O)[C@H](CO)NC(=O)[C@H](CC(C)C)NC(=O)[C@H](CC(C)C)NC(=O)[C@H](CC(C)C)NC(=O)[C@H](CO)NC(=O)[C@H](CC(C)C)NC(=O)CN)C(N)=O
25

----------
quantityKind: MIC

What is its MIC for Escherichia coli ATCC 25922? Entry: NCC(=O)N[C@@H](CCCN=C(N)N)C(=O)N[C@@H](CCCN=C(N)N)C(=O)N1CCC[C@H]1C(=O)N[C@@H](CCCN=C(N)N)C(=O)N1CCC[C@H]1C(=O)N[C@@H](CCCN=C(N)N)C(=O)N1CCC[C@H]1C(=O)N[C@@H](CCCN=C(N)N)C(=O)N1CCC[C@H]1C(=O)N[C@@H](Cc1ccccc1)C(=O)N[C@@H](Cc1ccccc1)C(=O)N[C@@H](Cc1ccccc1)C(=O)N[C@@H](Cc1ccccc1)C(=O)N[C@@H](Cc1ccccc1)C(=O)O
20 µM

----------
Tested on: Escherichia coli ATCC 25922
quantityKind: MIC (µM)
Write the value in µM as a bare number.

Fill in the blank: the reported MIC of CC[C@H](C)[C@H](NC(=O)[C@H](CCCCN)NC(=O)[C@H](CCCCN)NC(=O)[C@@H](NC(=O)[C@H](C)NC(=O)[C@H](CO)NC(=O)[C@@H](NC(=O)[C@H](C)NC(=O)[C@H](CO)NC(=O)[C@@H]1CCCN1C(=O)[C@@H](NC(=O)[C@H](CC(C)C)NC(=O)[C@H](CO)NC(=O)[C@H](CC(C)C)NC(=O)[C@H](CC(C)C)NC(=O)[C@H](Cc1ccccc1)NC(=O)[C@H](Cc1ccccc1)NC(=O)[C@@H]1CCCN1C(=O)[C@@H](N)CC(C)C)[C@@H](C)CC)[C@@H](C)CC)[C@@H](C)CC)C(N)=O [LPFFLLSLIPSAISAIKKI] is ____.
24

----------
Hi there, I'd appreciate the recorded MIC for every entry that follows.
Test system: Pseudomonas aeruginosa ATCC 9027
runDescription: ≥ marks a high value that may be exact or a test limit, other limits are often not marked, values filed in µg/mL are converted to µM

Fill in the blank: the reported MIC of NCCCC[C@H](NC(=O)[C@H](Cc1cnc[nH]1)NC(=O)CN)C(=O)O is ____.
> 100 µM

Fill in the blank: the reported MIC of NC(=O)[C@H](CCCN=C(N)N)NC(=O)[C@H](CCCN=C(N)N)NC(=O)[C@H](Cc1c[nH]c2ccccc12)NC(=O)[C@H](Cc1c[nH]c2ccccc12)NC(=O)[C@H](CCCN=C(N)N)NC(=O)[C@H](Cc1c[nH]c2ccccc12)NC(=O)[C@H](Cc1c[nH]c2ccccc12)NC(=O)[C@H](CCCN=C(N)N)NC(=O)[C@H](Cc1c[nH]c2ccccc12)NC(=O)[C@H](CCCN=C(N)N)NC(=O)[C@H](CCCN=C(N)N)NC(=O)[C@H](CCCN=C(N)N)NC(=O)[C@@H](N)CCCN=C(N)N is ____.
29.1 µM

----------
System: Escherichia coli ATCC 25922
Hi there, I'd appreciate the recorded MIC for every entry that follows.

What is its MIC for Escherichia coli ATCC 25922? Entry: CC[C@H](C)[C@H](NC(=O)[C@H](CCCN=C(N)N)NC(=O)[C@@H](NC(=O)[C@H](CCCN=C(N)N)NC(=O)[C@H](Cc1c[nH]c2ccccc12)NC(=O)[C@H](CCCN=C(N)N)NC(=O)[C@H](Cc1ccccc1)NC(=O)[C@H](CCCN=C(N)N)NC(=O)[C@@H]1CCCN1)[C@@H](C)CC)C(N)=O [PRFRWRIRI]
3.54 µM

What is its MIC for Escherichia coli ATCC 25922? Entry: CC[C@H](C)[C@H](NC(=O)CNC(=O)[C@H](CS)NC(=O)[C@H](Cc1ccccc1)NC(=O)[C@H](CCCCN)NC(=O)[C@H](CCCN=C(N)N)NC(=O)[C@@H]1CCCN1C(=O)[C@H](CCCN=C(N)N)NC(=O)[C@H](CC(=O)O)NC(=O)[C@@H]1CCCN1C(=O)[C@H](C)N)C(=O)N[C@@H](CC(C)C)C(=O)NCC(=O)O [APDRPRKFCGILG]
> 140 µM

What is its MIC for Escherichia coli ATCC 25922? Entry: C[C@H](NC(=O)[C@H](C)NC(=O)[C@H](Cc1c[nH]c2ccccc12)NC(=O)[C@H](Cc1c[nH]c2ccccc12)NC(=O)[C@H](Cc1c[nH]c2ccccc12)NC(=O)[C@@H](N)CCCN=C(N)N)C(N)=O [RWWWAA]
> 64 µM

What is its MIC for Escherichia coli ATCC 25922? Entry: CC(C)[C@H](NC(=O)[C@H](CC(N)=O)NC(=O)[C@H](CCCCN)NC(=O)[C@H](CCCN=C(N)N)NC(=O)[C@@H]1CCCN1C(=O)[C@H](C)N)C(=O)N[C@@H](CCCN=C(N)N)C(=O)N[C@@H](Cc1c[nH]c2ccccc12)C(=O)O [APRKNVRW]
62.4 µM

What is its MIC for Escherichia coli ATCC 25922? Entry: CC[C@H](C)[C@H](NC(=O)[C@H](CCC(=O)O)NC(=O)[C@H](CCCCN)NC(=O)[C@H](CCSC)NC(=O)[C@H](CCCCN)NC(=O)[C@H](C)NC(=O)[C@H](CC(C)C)NC(=O)[C@H](Cc1ccccc1)NC(=O)[C@H](C)NC(=O)[C@H](CCC(N)=O)NC(=O)[C@H](CC(C)C)NC(=O)[C@H](CCCN=C(N)N)NC(=O)CN)C(=O)N[C@@H](C)C(=O)N[C@@H](C)C(=O)N[C@@H](CCC(N)=O)C(=O)N[C@H](C(=O)N[C@@H](CC(C)C)C(N)=O)[C@@H](C)O [GRLQAFLAKMKEIAAQTL]
4.44 µM

What is its MIC for Escherichia coli ATCC 25922? Entry: CC[C@H](C)[C@H](NC(=O)CNC(=O)[C@@H](N)CO)C(=O)N[C@@H](CCC(N)=O)C(=O)N1CCC[C@H]1C(=O)N[C@@H](CCC(=O)O)C(=O)N[C@@H](CCC(N)=O)C(=O)N[C@@H](Cc1cnc[nH]1)C(=O)N[C@@H](CO)C(=O)N[C@@H](CO)C(N)=O [SGIQPEQHSS]
> 100 µM
